Origin of values: the supplement of paper PMC10567573

Listing: protein stability index of selected sequences
# ASSAY_NAME: protein stability index of a GFP-peptide fusion (GPS, HEK-293T) (PSI 1-6); higher = more stable;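 further: 24-mer peptide tiles fused after GFP, lentivirally expressed, FACS-sorted into six equal bins by GFP/DsRed ratio, decoded by Illumina sequencing, PSI is the read-weighted mean bin number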
# TEST_CONDITIONS: treatment: MLN4924 1 uM, 8 h; c terminus: a fixed tail appended
Answer with a bare number; do not write a unit.

Solved entries:
RESIDUE_SEQUENCE: EDENDLEELNNGEPQTEHQQESES [MIA2]
protein stability index: 5.74

RESIDUE_SEQUENCE: REAKMICFKSVAKTPYDTSRRQEK [ELOA2]
protein stability index: 4.11

RESIDUE_SEQUENCE: HQRIHTGEKPFECNECGKAFRWGA [ZNF232]
protein stability index: 2.61

RESIDUE_SEQUENCE: GTGTGPEDGRPSLGSPYGQPPRFP [PDLIM4]
protein stability index: 4.53

Could you now consider this next sequence?
Annotate the sequence AIMCVSCICWSPFLVTMANIGING [PTGFR] with its measured protein stability index.
3.71

---

# ASSAY_NAME: protein stability index of a GFP-peptide fusion (GPS, HEK-293T) (PSI 1-6); higher = more stable
# TEST_CONDITIONS: treatment: MLN4924 1 uM, 8 h; c terminus: a fixed tail appended
Lab note: anything with protein stability index at or over 3 counts as True; the rest go in False.

Completed entries (count: 5):
RESIDUE_SEQUENCE: SALPTGSPKRGTAPGDLSATEPAT [FBF1]
CLASSIFICATION: True

RESIDUE_SEQUENCE: KELDENVEYEERESEFDIEDEDKS [RBBP5]
CLASSIFICATION: True

RESIDUE_SEQUENCE: QIENLNIQVEDIRIRAILSTYRKR [LOXL2]
CLASSIFICATION: False

RESIDUE_SEQUENCE: DDCSSTIVEDPQTKCEYMLNSMPK [ESRRG]
CLASSIFICATION: True

RESIDUE_SEQUENCE: QKQQAPRMDTPPPEERLEKQNEKL [CCDC89]
CLASSIFICATION: True

Does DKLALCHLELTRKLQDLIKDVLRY [FCHO1] have a reported protein stability index of at least 3?
False

Does SHHLAVYNSPQFKKTMSTFHNLVS [FBXO39] have a reported protein stability index of at least 3?
False

Does PFTVSPNTHVSQVFNLFRTMGLRH [CLCN6] have a reported protein stability index of at least 3?
False

Does SSFTWSVPSSGYGAVTASKHSNSP [SMTNL2] have a reported protein stability index of at least 3?
True

Does VQPCSAVHLLLKKVLFALCALNAL [FAM189A2] have a reported protein stability index of at least 3?
False

---

# ASSAY_NAME: protein stability index of a GFP-peptide fusion (GPS, HEK-293T) (PSI 1-6); higher = more stable
# TEST_CONDITIONS: treatment: DMSO; c terminus: a fixed tail appended
Lab note: anything with protein stability index at or over 3 counts as rule met; the rest go in rule not met.

RESIDUE_SEQUENCE: ETAIADAEQRGDNALKDARAKLDE [KRT71]
CLASSIFICATION: rule met
--
RESIDUE_SEQUENCE: ALDNESWGFVHPRLLSVPELCHHV [RETREG3]
CLASSIFICATION: rule not met
--
RESIDUE_SEQUENCE: PVRTTNKISKQFVAPADVRRLLSY [ZSWIM9]
CLASSIFICATION: rule not met
--
RESIDUE_SEQUENCE: GARDGIRYLEAEFKKGNRYIRCQK [SMG5]
CLASSIFICATION: rule met
--
RESIDUE_SEQUENCE: ASHLGNELEGTEELCCVAELDNPM [C2CD2L]
CLASSIFICATION: rule met
--
RESIDUE_SEQUENCE: SNASEDTRRLRLAHVGMELQLKQE [SCARA5]
CLASSIFICATION: rule met
--
RESIDUE_SEQUENCE: VEALQLSARWLEVLRTYLELVLCV [FBXO33]
CLASSIFICATION: rule not met
--
RESIDUE_SEQUENCE: TFHEGKHNISHMSMDIARGLMVTC [WDFY1]
CLASSIFICATION: rule not met

Does LQNNCTSSITRQKKRLQELALALK [TMEM120A] have a reported protein stability index of at least 3?
rule not met

Does EIKDLILPKISDPNFVKDLEEDLY [PI4K2A] have a reported protein stability index of at least 3?
rule met

Does TRVLAEMREQYEAMAERNRRDAEE [KRT13] have a reported protein stability index of at least 3?
rule met

Does EMTTTDDLDFKHHNYKEMRQLMKV [CPXM2] have a reported protein stability index of at least 3?
rule met

Does PRKVSTCTDHELENHSMYCVQCKM [TRIM9] have a reported protein stability index of at least 3?
rule met

Does TNEWEKRLSTSPVRLAARQEDAPM [EPB41L3] have a reported protein stability index of at least 3?
rule met

Does PVHLVDKLPLPSTLRSHLKSFSMA [RAB40A] have a reported protein stability index of at least 3?
rule not met

Does IPQAGGWGPWGPWGDCSRTCGGGV [ADAMTS4] have a reported protein stability index of at least 3?
rule not met

Does AVFRFWAGGEKGPQAFPMSRLWDS [DNAAF3] have a reported protein stability index of at least 3?
rule not met

---

# ASSAY_NAME: protein stability index of a GFP-peptide fusion (GPS, HEK-293T) (PSI 1-6); higher = more stable
# TEST_CONDITIONS: treatment: MLN4924 1 uM, 8 h; c terminus: a fixed tail appended
Lab note: anything with protein stability index at or over 3 counts as MET; the rest go in NOT MET.

Completed entries (count: 5):
RESIDUE_SEQUENCE: GQTPLAVSISISGSSRPCLDFLQE [ASB7]
CLASSIFICATION: NOT MET
--
RESIDUE_SEQUENCE: AIVDLISRQYDKFLTHFILMNDVI [FBXO33]
CLASSIFICATION: MET
--
RESIDUE_SEQUENCE: KVYYEVIQLIKTNKKHIHSRSTLE [SMG5]
CLASSIFICATION: NOT MET
--
RESIDUE_SEQUENCE: ASHLGNELEGTEELCCVAELDNPM [C2CD2L]
CLASSIFICATION: MET
--
RESIDUE_SEQUENCE: AMVLELLGPSLEDLFDLCDRTFTL [CSNK1G1]
CLASSIFICATION: NOT MET

Does QAQAVQTEQAVALLRDRTGQQSDT [SCARA5] have a reported protein stability index of at least 3?
MET

Does PPYSRLSPRDEYKPLDLSDSTLSY [SMAD6] have a reported protein stability index of at least 3?
MET

Does HSKASLPTGEGSISHEEQKSVRLA [CHCHD6] have a reported protein stability index of at least 3?
MET

Does IGCVFAELLTGQPLWPGKSDVDQL [CDKL4] have a reported protein stability index of at least 3?
NOT MET

Does GVNYPKPMVNHAEASRLNIERMKQ [CRY1] have a reported protein stability index of at least 3?
MET

Does VGLIRNLALCPANHAPLREQGAIP [CTNNB1] have a reported protein stability index of at least 3?
MET

Does EVENQFILRLPLEHACTVRNLARS [TAF7L] have a reported protein stability index of at least 3?
NOT MET

---

# ASSAY_NAME: protein stability index of a GFP-peptide fusion (GPS, HEK-293T) (PSI 1-6); higher = more stable
# TEST_CONDITIONS: treatment: DMSO; c terminus: a fixed tail appended
Lab note: anything with protein stability index at or over 3 counts as fulfilled; the rest go in not fulfilled.

Completed entries (count: 6):
RESIDUE_SEQUENCE: WIDIKQFVWYTPPTFMIAVFLPIV [STEAP1]
CLASSIFICATION: not fulfilled

RESIDUE_SEQUENCE: SSETPIEGKNMSFVNDLTVTQDGR [APMAP]
CLASSIFICATION: fulfilled

RESIDUE_SEQUENCE: GHPYRGASQFLASASSSTTCCEST [IRX6]
CLASSIFICATION: fulfilled

RESIDUE_SEQUENCE: QSLTQRLHALKLRSPDASPSRAPP [GNAS]
CLASSIFICATION: fulfilled

RESIDUE_SEQUENCE: TEPEQRELKTKLTKLEAEIVTLRH [TPD52L3]
CLASSIFICATION: fulfilled

RESIDUE_SEQUENCE: HYAGQDATDPFVAFHINKGLVKKY [FADS1]
CLASSIFICATION: fulfilled

Does EGMDRWIKKIEEHAPGVPKILVGN [RAB40A] have a reported protein stability index of at least 3?
fulfilled

Does ATRAMGLLNTLSLAFVGGLPLAYQ [TMEM175] have a reported protein stability index of at least 3?
fulfilled

Does GDLFESTPEVAAAPKPDAAPSIDL [SNAP91] have a reported protein stability index of at least 3?
fulfilled
